Tested on: EA.hy.926
Test: Arginine uptake by endothelial cell line EA.hy.926
Format: cell-based
Conditions: Homo sapiens, compound at 10^-7 M (bottom value), read-out: Arg uptake (% control) from FIG. 4
Text: Further studies have been performed to characterize the effects of compounds from library M0006 on arginine transport in endothelial cells. Studies performed in the endothelial cell line EA.hy.926 (Harrison-Shostak et al, 1997) have identified a number of compounds which exert a stimulatory effect on L-arginine transport. This cell line is considered to be more physiologically relevant than HeLa cells to the target conditions, and in fact was more sensitive. […]
Below, each entry is listed alongside its reported activity at 0.1 µM.
In your response, put the unit directly after the numeric value.

Q: Return reported activity at 0.1 µM; argument: COc1ccccc1CNC(=N)Nc1ccc(C(N)=O)cc1OCC1CCCCC1 [M0006 01 H10]
Result: 146%

Q: Return reported activity at 0.1 µM; argument: CC(CNC(=N)Nc1ccc(C(N)=O)cc1OCC1CCCCO1)c1ccccc1 (stereo not shown) [M0006 01 F05]
Result: 130%

* * *

Below, each entry is listed alongside its reported activity at 0.01 µM.
System: EA.hy.926
Test: Arginine uptake by endothelial cell line EA.hy.926
Format: cell-based
Conditions: Homo sapiens, compound at 10^-8 M (top value), read-out: Arg uptake (% control) from FIG. 4
Could you give me the number in %? Just the number is fine.

[
  {
    "Compound": "N=C(Nc1ccc(C(N)=O)cc1OCC1CCC1)NC1CCCCC1",
    "Unit label": "%",
    "Test result": 161
  }
]

Q: Return reported activity at 0.01 µM; argument: N=C(NCC1CCCCC1)Nc1ccc(C(N)=O)cc1OCC1CCCCC1
Result: 123

Q: Return reported activity at 0.01 µM; argument: COc1ccccc1CNC(=N)Nc1ccc(C(N)=O)cc1OCC1CCC1
Result: 130

Q: Return reported activity at 0.01 µM; argument: Cc1cccc(COc2cc(C(N)=O)ccc2NC(=N)NCc2ccco2)c1
Result: 108

Q: Return reported activity at 0.01 µM; argument: N=C(NCc1ccccc1)Nc1ccc(C(N)=O)cc1OCC1CCCCC1
Result: 131

Q: Return reported activity at 0.01 µM; argument: N=C(NCc1ccco1)Nc1ccc(C(N)=O)cc1OCc1ccccc1
Result: 158

Q: Return reported activity at 0.01 µM; argument: N=C(NCc1ccc(Cl)c(Cl)c1)Nc1ccc(C(N)=O)cc1OCC1CCCCC1
Result: 99

Q: Return reported activity at 0.01 µM; argument: CC(C)CNC(=N)Nc1ccc(C(N)=O)cc1OCC1CCCCO1 (centres unmarked)
Result: 103

* * *

Tested on: EA.hy.926
Experiment: Arginine uptake by endothelial cell line EA.hy.926
Type: cell-based
Settings: Homo sapiens, compound at 10^-7 M (bottom value), read-out: Arg uptake (% control) from FIG. 4
Measured quantity: activity at 0.1 µM
In your response, put the unit directly after the numeric value.

[
  {
    "Entry smiles": "N=C(NCNc1ccc([N+](=O)[O-])cn1)Nc1ccc(C(N)=O)cc1OCc1ccccc1",
    "activity at 0.1 µM": "138%"
  }
]

Q: Return reported activity at 0.1 µM; argument: N=C(NCc1ccccc1F)Nc1ccc(C(N)=O)cc1OCC1CCC1
Result: 128%

Q: Return reported activity at 0.1 µM; argument: N=C(NCc1ccc(Cl)c(Cl)c1)Nc1ccc(C(N)=O)cc1OCC1CCC1
Result: 66%

Q: Return reported activity at 0.1 µM; argument: Cc1cccc(COc2cc(C(N)=O)ccc2NC(=N)NCc2ccco2)c1
Result: 182%

Data origin: patent US7956219B2
